The values you see were collected from patent US11046716B2.

Here, each record is paired with measured pIC50 data.
Target: SHV-5 (Klebsiella pneumoniae, UniProt P0A3M1)
Sequence (P0A3M1 22-286): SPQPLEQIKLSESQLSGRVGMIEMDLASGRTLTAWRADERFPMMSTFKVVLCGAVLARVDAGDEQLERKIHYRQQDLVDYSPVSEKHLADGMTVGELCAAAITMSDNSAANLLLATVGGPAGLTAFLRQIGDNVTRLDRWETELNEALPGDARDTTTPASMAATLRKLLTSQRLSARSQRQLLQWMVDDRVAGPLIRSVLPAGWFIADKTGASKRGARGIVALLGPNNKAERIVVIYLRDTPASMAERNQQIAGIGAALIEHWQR
Assay: β-lactamase enzyme inhibition assay, SHV-5 (cefotaxime substrate)
Protocol: For SHV-5, Kpc-2, p99AmpC and OXA-1 β-lactamases, E. coli BL21(DE3) bacterial cells carrying expression plasmids (expressed as native untagged proteins) for the individual β-lactamases were grown in 1 L of Superbroth (Teknova Inc. Hollister, Calif.) supplemented with 100 μg/ml kanamycin selection and 1×5052 (0.5% glycerol, 0.05% glucose and 0.2% α-lactose) at 35° C. for 18-20 hours. […]
pIC50: −log10 of the molar value.

Guide cases for pIC50, answers given:
>>> val("NCCn1nnc(CC(=O)N[C@H]2Cc3cccc(C(=O)O)c3OB2O)n1")
"> 7.00"
>>> val("O=C(Cn1cc(C2CCNC2)nn1)N[C@H]1Cc2cccc(C(=O)O)c2OB1O (stereo partly shown)")
"6.00 to 7.00"
>>> val("NCCn1cncc1C(=O)N[C@H]1Cc2cccc(C(=O)O)c2OB1O")
"> 7.00"
>>> val("NCCOCc1cn(CC(=O)N[C@H]2Cc3cccc(C(=O)O)c3OB2O)nn1")
"> 7.00"
>>> val("O=C(Cn1cc(CNCCO)nn1)N[C@H]1Cc2cccc(C(=O)O)c2OB1O")
"> 7.00"

Item N[C@@H]1CCN(C(=O)c2cn(CC(=O)N[C@H]3Cc4cccc(C(=O)O)c4OB3O)nn2)C1 has what recorded pIC50?
6.00 to 7.00

Item NCCn1cc(Cn2nnc(CC(=O)N[C@H]3Cc4cccc(C(=O)O)c4OB3O)n2)nn1 has what recorded pIC50?
> 7.00
